The measurements presented in this section are drawn from PubChem BioAssay (NCI).

system: CCRF-CEM leukemia; experiment: NCI-60 one-dose screen, 48 h (100 = growth as untreated, 0 = no growth, -100 = all killed); settings: 10 µM unless noted
The panel holds about 83,000 compounds, 20% with a hit somewhere; the sample as a whole holds those more often.
test.readout: growth (%)
Expressed in %, but write only the number.

Answered examples (8):
COc1cccc(/C=N/N=C(N)N)c1 :: 108
O=[N+]([O-])c1ccccc1CN1CCCCC1 :: 85.4
Cc1c(C)c(C)c([N+](=O)[O-])c([N+](=O)[O-])c1C :: 121
COc1ccc(C(=O)c2cc(C)c(OC)c(C)c2)cc1OC(=O)CCl :: 8.68
CC[C@H](Nc1nc(N)nc(C2CC2)c1C#N)c1nc2cccc(NCc3ccc(C(=O)NO)cc3)c2c(=O)n1-c1ccccc1 :: 8.87
COc1cccc(OCC(O)CN2CCN(c3ccccc3)CC2)c1 (centres undefined) :: 121
CC(=O)Nc1ccc(Cl)cc1Cl :: 145
O=C(Nc1ccc(Oc2ccc(Nc3nc4ccccc4s3)cc2)cc1)Nc1ccc(Cl)c(C(F)(F)F)c1 :: 5.88

q: # query: growth of entry `c1ccc(-c2[nH]c3ccccc3c2-c2ccccc2)cc1`
a: 47.6
